Target: human S1P1 receptors (Homo sapiens)
Assay: S1P1R antagonist assay (fluorescent membrane potential dye, cAMP readout)
Details: HEK293 cells expressing human S1P1 receptors and CNG channel; 500 nM NECA; S1P1R agonist 10 nM; 90 minutes; read-out: EC50 or IC50 value
Method: The S1P1R antagonist assay is a fluorescent membrane potential dye measurement assay, indicative of intracellular cAMP changes due to G protein-coupled receptor activation. […] Membrane depolarization is detected with a membrane potential dye. […] Assay plates were read with a PerkinElmer EnVision reader (Excitation 350 nm, Emission 590 nm) at time T=0 minutes, before compound addition and at time T=90 minutes. The signal was calculated as the ratio T90/T0. […]
measuredMetric: IC50

// below: answered compounds
compound="CO[C@H](C(=O)NC(COCc1ccccc1)C(=O)Nc1ccc(Oc2ccccc2)cc1)c1ccccc1 (stereo partly shown)" recordedresult="> 1000 nM"
compound=COCCOCC(=O)N1C[C@H](Cc2ccccc2)C[C@H]1C(=O)Nc1ccc(Oc2ccc(F)cc2)cc1 recordedresult="≤ 300 nM"
compound="CS(=O)(=O)c1ccc(C(=O)NC(COCc2ccccc2)C(=O)Nc2ccc(Oc3ccccc3)cc2)c(Cl)c1 (stereo not shown)" recordedresult="> 1000 nM"

Now for another entry.
Missing value: IC50, human S1P1 receptors (Homo sapiens), entry `CN(C)CCC(=O)N[C@@H](COCc1ccccc1)C(=O)Nc1ccc(Oc2ccc(Cl)cc2)cc1` . Fill in? 300 to 1000 nM

---

Target: human S1P1 receptors (Homo sapiens)
Assay: S1P1R antagonist assay (fluorescent membrane potential dye, cAMP readout)
Conditions: HEK293 cells expressing human S1P1 receptors and CNG channel; 500 nM NECA; S1P1R agonist 10 nM; 90 minutes; read-out: EC50 or IC50 value
measuredMetric: IC50

compound="Cc1cc(F)ccc1C[C@@H]1C[C@@H](C(=O)Nc2ccc(Oc3ccc(F)cc3)cc2)N(C(=O)Cn2nccn2)C1 [Compound 7]" measuredmetric=IC50 recordedresult="≤ 300 nM"
compound="O=C(Nc1ccc(Oc2ccc(F)cc2)cc1)[C@@H]1C[C@@H](Cc2ccc(Cl)s2)CN1C(=O)Cn1ccnn1 [Compound 65]" measuredmetric=IC50 recordedresult="≤ 300 nM"
compound="Cc1ccc(C(=O)NC(COCc2ccccc2)C(=O)Nc2ccc(Oc3ccccc3)cc2)cc1C (centres unmarked) [Compound 279]" measuredmetric=IC50 recordedresult="> 1000 nM"
compound="C#CCCC(=O)NC(COCc1ccccc1)C(=O)Nc1ccc(Oc2ccccc2)cc1 (centres unmarked) [Compound 344]" measuredmetric=IC50 recordedresult="> 1000 nM"
compound="CC(=O)CCCC(=O)NC(COCc1ccccc1)C(=O)Nc1ccc(Oc2ccccc2)cc1 (centres unmarked) [Compound 310]" measuredmetric=IC50 recordedresult="> 1000 nM"
compound="CC(=O)NC(COCc1ccccc1)C(=O)Nc1ccc(Oc2ccccc2)cc1 (centres unmarked) [Compound 269]" measuredmetric=IC50 recordedresult="300 to 1000 nM"
compound="O=C(COc1ccccc1)NC(COCc1ccccc1)C(=O)Nc1ccc(Oc2ccccc2)cc1 (centres unmarked) [Compound 289]" measuredmetric=IC50 recordedresult="> 1000 nM"
compound="CS(=O)(=O)CC(=O)N1C[C@H](Cc2ccccc2)C[C@H]1C(=O)Nc1ccc(Oc2ccc(F)cc2)cc1 [Compound 87]" measuredmetric=IC50 recordedresult="≤ 300 nM"

Query (compound): CSc1ccc(C(=O)NC(COCc2ccccc2)C(=O)Nc2ccc(Oc3ccccc3)cc2)cc1 (centres unmarked) [Compound 306] ; field requested: IC50 > 1000 nM

Query O=C(Cc1c[nH]c2ccc(F)cc12)N[C@@H](COCc1ccccc1)C(=O)Nc1ccc(Oc2ccc(F)cc2)cc1 [Compound 212] next ≤ 300 nM

Subsequent entry: O=C(Nc1ccc(Oc2ccc(F)cc2)cc1)[C@@H]1C[C@@H](Cc2ccccc2)CN1C(=O)CN1C(=O)c2ccccc2C1=O [Compound 97] ≤ 300 nM

What about this compound? O=C(Cn1nnc2ccccc21)N[C@@H](COCc1ccccc1)C(=O)Nc1ccc(Oc2ccc(F)cc2)cc1 [Compound 151] ≤ 300 nM

Next entry: O=C(Cn1ccnn1)N[C@@H](COCc1ccccc1)C(=O)Nc1ccc(Oc2ccc(F)cc2)cc1 [Compound 174] ≤ 300 nM

And what about the compound O=C(Nc1ccc(Oc2ccc(F)cc2)cc1)[C@@H]1C[C@@H](Cc2ccccc2)CN1C(=O)CN1CCc2ccccc2C1 [Compound 82] ? ≤ 300 nM

Next compound: O=C(Nc1ccc(Oc2ccccc2)cc1)C(COCc1ccccc1)NC(=O)[C@H](O)Cc1ccccc1 (some centres unmarked) [Compound 27] > 1000 nM

Same lookup for O=C(Nc1ccc(Oc2ccc(F)cc2)cc1)[C@@H]1C[C@@H](c2ccccc2)CN1C(=O)Cc1cnc[nH]1 [Compound 251] , please. ≤ 300 nM

Can you check Cc1ccoc1C(=O)NC(COCc1ccccc1)C(=O)Nc1ccc(Oc2ccccc2)cc1 (centres unmarked) [Compound 401] next? > 1000 nM

Would you mind doing CC(C(=O)NC(COCc1ccccc1)C(=O)Nc1ccc(Oc2ccccc2)cc1)c1ccccc1 (centres unmarked) [Compound 359] as well? > 1000 nM

Repeat with Cc1ccc(OCC(=O)NC(COCc2ccccc2)C(=O)Nc2ccc(Oc3ccccc3)cc2)cc1 (centres unmarked) [Compound 393] > 1000 nM

Param item: O=C(NC(COCc1ccccc1)C(=O)Nc1ccc(Oc2ccccc2)cc1)c1ccnc2ccccc12 (centres unmarked) [Compound 365] > 1000 nM

Would you mind doing O=C(NC(COCc1ccccc1)C(=O)Nc1ccc(Oc2ccccc2)cc1)C1CCN(c2nccc(C(F)(F)F)n2)CC1 (centres unmarked) [Compound 302] as well? > 1000 nM

Query CC1CCCN(CC(=O)N[C@@H](COCc2ccccc2)C(=O)Nc2ccc(Oc3ccc(F)cc3)cc2)C1 (some centres unmarked) [Compound 46] next > 1000 nM

Moving on to O=C(Cc1cccc(Br)c1)NC(COCc1ccccc1)C(=O)Nc1ccc(Oc2ccccc2)cc1 (centres unmarked) [Compound 384] > 1000 nM

What do you get for COc1ccc(OC)c(C(=O)NC(COCc2ccccc2)C(=O)Nc2ccc(Oc3ccccc3)cc2)c1 (centres unmarked) [Compound 332] ? 300 to 1000 nM

---

Here, each record is paired with measured pIC50 data.
Molecular target: human S1P1 receptors (Homo sapiens, UniProt P21453)
Sequence (P21453 whole entry): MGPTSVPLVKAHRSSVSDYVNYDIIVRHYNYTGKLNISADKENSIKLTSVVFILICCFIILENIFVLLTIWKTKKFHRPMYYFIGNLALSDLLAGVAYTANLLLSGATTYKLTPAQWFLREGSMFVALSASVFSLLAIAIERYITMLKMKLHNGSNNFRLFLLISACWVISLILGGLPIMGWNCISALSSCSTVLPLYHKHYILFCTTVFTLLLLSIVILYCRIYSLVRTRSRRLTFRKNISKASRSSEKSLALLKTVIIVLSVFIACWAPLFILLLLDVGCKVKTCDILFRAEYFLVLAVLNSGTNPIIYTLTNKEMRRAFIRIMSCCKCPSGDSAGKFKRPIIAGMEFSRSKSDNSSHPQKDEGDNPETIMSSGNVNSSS
Test: S1P1R antagonist assay (fluorescent membrane potential dye, cAMP readout)
Conditions: HEK293 cells expressing human S1P1 receptors and CNG channel; 500 nM NECA; S1P1R agonist 10 nM; 90 minutes; read-out: EC50 or IC50 value
pIC50: −log10 of the molar value.

Some entries whose results are on file:
compound="COc1cc(CC(=O)NC(COCc2ccccc2)C(=O)Nc2ccc(Oc3ccccc3)cc2)cc(OC)c1OC (centres unmarked) [Compound 392]" recordedresult="6.00 to 6.52"
compound="Cc1n[nH]c(C)c1CC(=O)N[C@@H](COCc1ccc(F)cc1)C(=O)Nc1ccc(Oc2ccc(F)cc2)cc1 [Compound 258]" recordedresult="≥ 6.52"
compound="O=C(Nc1ccc(Oc2ccc(F)cc2)cc1)[C@@H]1C[C@@H](Cc2ccccc2)CN1C(=O)Cc1c[nH]c2ccccc12 [Compound 98]" recordedresult="≥ 6.52"
compound="CCCC(C)C(=O)NC(COCc1ccccc1)C(=O)Nc1ccc(Oc2ccccc2)cc1 (centres unmarked) [Compound 286]" recordedresult="< 6.00"
compound="CCN1CCN(CC(=O)N[C@@H](COCc2ccccc2)C(=O)Nc2ccc(Oc3ccc(F)cc3)cc2)CC1 [Compound 114]" recordedresult="< 6.00"
compound="O=C(CCCC(=O)c1ccccc1)NC(COCc1ccccc1)C(=O)Nc1ccc(Oc2ccccc2)cc1 (centres unmarked) [Compound 318]" recordedresult="< 6.00"
compound="COc1ccc(C(=O)NC(COCc2ccccc2)C(=O)Nc2ccc(Oc3ccccc3)cc2)cc1 (centres unmarked) [Compound 270]" recordedresult="< 6.00"
compound="O=C(CN1CCN(C(=O)C2CCCO2)CC1)N[C@@H](COCc1ccccc1)C(=O)Nc1ccc(Oc2ccc(F)cc2)cc1 (some centres unmarked) [Compound 237]" recordedresult="6.00 to 6.52"
compound="COc1cc(C(=O)NC(COCc2ccccc2)C(=O)Nc2ccc(Oc3ccccc3)cc2)cc(OC)c1OC (centres unmarked) [Compound 291]" recordedresult="< 6.00"
compound="O=C(Cc1c[nH]cn1)N[C@@H](COCc1ccc(F)cc1)C(=O)Nc1ccc(Oc2ccc(F)cc2)cc1 [Compound 133]" recordedresult="≥ 6.52"

Quick check: pIC50 of O=C(Cc1cnc[nH]1)N[C@@H](COCc1ccccc1)C(=O)Nc1ccc(OC2CCCCC2)cc1 [Compound 208] ? 6.00 to 6.52

Thanks! And O=C(CN1CCCCCC1)N[C@@H](COCc1ccccc1)C(=O)Nc1ccc(Oc2ccc(F)cc2)cc1 [Compound 128] ? < 6.00

Also CC(C)=CCC[C@H](C)CC(=O)N[C@@H](COCc1ccccc1)C(=O)Nc1ccc(Oc2ccc(F)cc2)cc1 [Compound 248] , if possible. 6.00 to 6.52

Now consider O=C(Nc1ccc(Oc2ccc(F)cc2)cc1)[C@@H]1C[C@@H](Cc2ccccc2)CN1C(=O)Cn1nccn1 [Compound 58] and answer again. ≥ 6.52

Can you handle O=C(Cn1cncn1)N[C@@H](CCCNC(=O)OCc1ccccc1)C(=O)Nc1ccc(Oc2ccc(F)cc2)cc1 [Compound 165] next? ≥ 6.52

Do the same for O=C(Cn1cncn1)N[C@@H](COCc1ccccc1)C(=O)Nc1ccc(Oc2ccccc2)cc1 [Compound 146] please ≥ 6.52

What do you get for O=C(CN1CCN(c2ccccc2F)CC1)N[C@@H](COCc1ccccc1)C(=O)Nc1ccc(Oc2ccc(F)cc2)cc1 [Compound 127] ? < 6.00

Follow-up item: O=C(CCC(=O)C1CC1)NC(COCc1ccccc1)C(=O)Nc1ccc(Oc2ccccc2)cc1 (centres unmarked) [Compound 186] 6.00 to 6.52

Okay, and CCC(C)CC(=O)NC(COCc1ccccc1)C(=O)Nc1ccc(Oc2ccccc2)cc1 (centres unmarked) [Compound 385] ? < 6.00

Try O=C(CCCCc1ccccc1)N[C@@H](COCc1ccccc1)C(=O)Nc1ccc(Oc2ccc(F)cc2)cc1 [Compound 104] next. < 6.00

And what about the compound O=C(NC(COCc1ccccc1)C(=O)Nc1ccc(Oc2ccccc2)cc1)c1ccc(F)cc1C(F)(F)F (centres unmarked) [Compound 330] ? < 6.00

Proceed to O=C(Nc1ccc(Oc2ccc(F)cc2)cc1)[C@@H]1C[C@H](Cc2ccc(F)cc2)CN1C(=O)Cn1cncn1 [Compound 76] ≥ 6.52

Consider next the compound O=C(CCc1c[nH]c2ccccc12)NC(COCc1ccccc1)C(=O)Nc1ccc(Oc2ccccc2)cc1 (centres unmarked) [Compound 383] in the same way. < 6.00

Another: CC(=O)c1ccc(OCC(=O)NC(COCc2ccccc2)C(=O)Nc2ccc(Oc3ccccc3)cc2)cc1 (centres unmarked) [Compound 319] < 6.00

Proceed to O=C(Nc1ccc(Oc2ccc(F)cc2)cc1)[C@@H]1C[C@@H](Cc2ccc(F)cc2F)CN1C(=O)Cn1nccn1 [Compound 52] ≥ 6.52

// next record CN1CCCC1CC1CCCCN1CC(=O)N[C@@H](COCc1ccccc1)C(=O)Nc1ccc(Oc2ccc(F)cc2)cc1 (stereo in doubt) [Compound 113] < 6.00

Also Cc1cc(F)ccc1C[C@@H]1C[C@@H](C(=O)Nc2ccc(Oc3ccc(F)cc3)cc2)N(C(=O)Cn2cncn2)C1 [Compound 8] , if possible. ≥ 6.52

Try O=C(Cc1ccccc1F)N[C@@H](COCc1ccccc1)C(=O)Nc1ccc(Oc2ccccc2)cc1 [Compound 196] next. 6.00 to 6.52

Same again, this time with O=C(Nc1ccc(Oc2ccccc2)cc1)C(COCc1ccccc1)NC(=O)C1(c2c(F)cccc2Cl)CCCC1 (centres unmarked) [Compound 329] < 6.00
